These measurements were taken from a melting point compilation (Tetko et al.; mined from patent text by program, amines drawn as free bases though some values may be those of a salt).

recordedMetric: melting point

Please review the following examples before continuing.
compound	melting point
NC(c1ccnc2cc(Cl)ccc12)C1CCCC(CNc2ccnc3cc(Cl)ccc23)C1 (configuration not stated)	92 to 95 °C
COc1ccc2c(c1)-c1noc(N3CCNCC3)c1CC2	86 to 88 °C
N#CCN1CCCC(OC(c2ccccc2)c2ccccc2)C1 (configuration not stated)	97 to 99 °C

Any idea what its melting point is? The compound is COc1ccc(CC(=O)N2C=CC(C)(C)C=C2)cc1OC
86 to 89.5 °C

====

recordedMetric: melting point

compound	melting point
Cc1ccc2nc3c(nc2c1)SC(=C(C#N)C#N)S3	265 to 267 °C
CN1CCC[C@H]1c1cnc(Cl)cc1P(C(C)(C)C)C(C)(C)C	125 to 127 °C
CCC(CC)N(O)C(=O)Nc1ccc(C(=O)c2ccccc2)cc1	156 to 157 °C

Any idea what its melting point is? The compound is CCOC(CBr)(OCC)C(=NOC)C(=O)Cl
33 to 35 °C

Param item: O=C(O)CCNC(=O)C(CS)C(F)(F)F (stereo not given)
108 to 110 °C

====

melting point for assorted compounds

compound	melting point
COc1cc(N(C)C)ccc1CN1C(=O)C(C)(c2ccccc2Cl)c2cc(Cl)ccc21 (stereo not drawn)	135 °C
CNC(=O)N(O)C(C)C#Cc1ccccc1 (stereo not drawn)	136 to 137 °C
CON(C)C(=O)c1cc2n(n1)CCC2	45 to 50 °C
COc1ccc(COCc2nc(C(C)C)c(I)[nH]2)cc1	78 to 79 °C
Cc1[nH]c2cccc3c2c1CC1C3CC(N)CN1C (stereo not drawn)	240 °C
CS(=O)(=O)N(CCc1ccccc1)Cc1cccnc1	94 to 95 °C
CCN(C)C1=NS(=O)(=O)c2ccc(Cl)cc2N1	> 220 °C
COc1ccc([N+](=O)[O-])cc1CN1CCNCCNCCNCC1	154 to 156 °C

Any idea what its melting point is? The compound is NCC1(Cc2noc(=O)[nH]2)CCCCC1
109 to 111 °C

Param item: O=C(CNc1c(C(=O)O)[nH]c2cc(Cl)cc(Cl)c12)c1ccc([N+](=O)[O-])cc1
270 to 272 °C

Param item: CC(c1oc2ccccc2c(=O)c1-c1cccc(F)c1)n1nc(-c2cccc(OC(F)(F)F)c2)c2c(N)ncnc21 (stereo not drawn)
155 to 157 °C

Param item: CS(=O)(=O)c1ccc(-c2sc(-c3ccccc3Cl)nc2-c2ccc(F)cc2)cc1
133 to 134 °C

Param item: CS(=O)(=O)c1cc(C(=O)O)c(NCc2ccccc2)cc1Cl
179 °C

====

recordedMetric: melting point

Please review the following examples before continuing.
compound	melting point
Cc1ccc(-c2nc3ccc(CN4CCN(C)CC4)cc3[nH]2)cc1C#Cc1ccc(NC(C)C)nn1	129 to 130 °C
Cc1ccc([N+](=O)[O-])c(O)c1CCC(C)Br (stereo not drawn)	67 to 69 °C

Next compound, melting point to be filled in.
Any idea what its melting point is? The compound is Cn1nnnc1SCCCCN1C(=O)c2ccccc2C1=O
92 to 93 °C

====

recordedMetric: melting point

Any idea what its melting point is? The molecule is CCc1c(-c2ccc(O)cc2)c2cc(COCCCN(C)C)c3cccc1n32
146 to 147 °C

Param item: Fc1ccc2[nH]cc(C3CCC4(CC3)OCCO4)c2c1
183 to 185 °C

Param item: CC#CCn1nnc2cc3c(=O)n(C(C)Cn4ncnn4)nnc3cc2c1=O (centres undefined)
132 to 134 °C

Param item: CC(OCc1cc2cc(C(F)(F)F)ccc2n1S(=O)(=O)c1ccc2c(c1)OCCN2C)C(=O)O (centres undefined)
118 to 120 °C

Param item: CC(C)(C)c1cc(C2=NC(=S)N=N2)cc(C(C)(C)C)c1O
> 250 °C

Param item: COC(=O)c1cc2n(c1)CCc1ccccc1C2=O
125 to 127 °C

Param item: Cn1c(-c2n[nH]c(=O)[nH]2)nc2ccccc21
293 to 296 °C

Param item: C=Cc1cncc(-c2cc(NC(=O)Cc3ccc4ccccc4c3)n[nH]2)c1
218 to 220 °C

Param item: CC(N)=CC(=O)OCC(C)(C)CN(C)Cc1ccccc1
68 to 70 °C
